Data credit: patent US20230310388A1

tested on: Cryptococcus neoformans; experiment: CLSI broth microdilution MIC (Example 4); format: cell-based; conditions: Cryptococcus neoformans SA1

| compound | reportedRelation | MIC at 24-48 hours, µg/mL |
| --- | --- | --- |
| COc1ccc(C=NNC(=N)NN=Cc2ccc(OC)c(OC)c2)cc1OC.Cl [NCL115] | = | 8 |
| C/C(=N\NC(=N)N/N=C(\C)c1ccc(C(C)(C)C)cc1)c1ccc(C(C)(C)C)cc1.Cl [NCL219] | = | 2 |
| CC(=NNC(=N)N)c1c[nH]c2ccccc12 [NCL269] | > | 32 |
| Clc1ccc(CNCCNCc2ccc(Cl)cc2)cc1 [NCL260] | > | 32 |
| Cl.N#Cc1ccc(C=NNC(=N)NN=Cc2ccc(C#N)cc2)cc1 [NCL024] | > | 32 |
| Cl.N=C(NN=Cc1cc(O)c(O)c(O)c1)NN=Cc1cc(O)c(O)c(O)c1 [NCL097] | = | 16 |
| Cl.N=C(N)N/N=C/c1ccc(C(F)(F)F)cc1F [NCL263] | > | 32 |
| Nc1nc(NN=Cc2ccc(F)cc2)cc(NN=Cc2ccc(F)cc2)n1 [NCL220] | = | 2 |
| Cc1ccc(/C=N/Nc2cc(N/N=C/c3ccc(C)cc3)nc(N)n2)cc1 [NCL195] | = | 2 |
| C[C@@H]1[C@H](O)[C@@H](C)/C=C/C=C/C=C/C=C/C=C/C=C/C=C/[C@H](O[C@@H]2O[C@H](C)[C@@H](O)[C@H](N)[C@@H]2O)C[C@@H]2O[C@](O)(C[C@@H](O)C[C@@H](O)[C@H](O)CC[C@@H](O)C[C@@H](O)CC(=O)O[C@H]1C)C[C@H](O)[C@H]2C(=O)O [Amphotericin B, reference compound] | = | 0.3 |
| Cl.N=C(NN=Cc1cc(Cl)cc(Cl)c1)NN=Cc1cc(Cl)cc(Cl)c1 [NCL114] | > | 32 |
| Clc1ccc(/C=N/CC/N=C/c2ccc(Cl)cc2)cc1 [NCL250] | > | 32 |
| Cl.N=C(NN=Cc1ccc([N+](=O)[O-])cc1)NN=Cc1ccc([N+](=O)[O-])cc1 [NCL110] | > | 32 |
| Nc1nc(N/N=C/c2cc(O)c(O)c(O)c2)cc(N/N=C/c2cc(O)c(O)c(O)c2)n1 [NCL247] | > | 32 |
| Cl.N=C(NN=Cc1ccccc1Cl)NN=Cc1ccccc1Cl [NCL020] | > | 32 |
| Clc1ccc(C=NNc2cc(NN=Cc3ccc(Cl)cc3)ncn2)cc1 [NCL181] | > | 32 |
| Cl.N=C(NN=CC1CCCCC1)NN=CC1CCCCC1 [NCL094] | > | 32 |
| COc1cc(Br)c(C=NNC(=N)NN=Cc2cc(OC)c(OC)cc2Br)cc1OC.Cl [NCL135] | > | 32 |
| [H]/N=C(\N)NN=C(CC1CCCCC1)c1ccc(Cl)cc1 [NCL259] | = | 2 |
| Cl.N=C(NN=Cc1cnc2ccccc2c1)NN=Cc1cnc2ccccc2c1 [NCL139] | > | 32 |
| [H]/N=C(\N)NN=C(CCCCCC)c1ccc(Cl)cc1 [NCL265] | = | 1 |
| CCCCCCNC(=O)N(N=Cc1ccc(Cl)cc1)C(N)=NN=Cc1ccc(Cl)cc1 [NCL228] | > | 32 |
| CN(C)c1ccc(/C=N/NC(=N)N/N=C/c2ccc(N(C)C)cc2)cc1.Cl [NCL113] | = | 4 |
| C/C(=N\NC(=N)N/N=C(\C)c1ccc(Cl)cc1)c1ccc(Cl)cc1.Cl [NCL062] | = | 1 |
| OCC(=NNc1cc(NN=C(CO)c2ccc(Cl)cc2)ncn1)c1ccc(Cl)cc1 [NCL180] | > | 32 |
| Cl.N=C(NN=Cc1cccc(F)c1)NN=Cc1cccc(F)c1 [NCL023] | = | 16 |
